Tested on: HAP1 MTAP-intact cell line
Assay: SDMA in-cell western assay, HAP1 MTAP-intact
Type: cell-based
Conditions: Homo sapiens, HAP1, SDMA in-cell western, HAP1 MTAP-intact; read-out: MTAP HAP1 intact IC50
measureName: IC50

compound: CNS(=O)(=O)c1ccc([C@@H]2CC[C@@H](C)CN2C(=O)C(=O)Nc2cnc(N)c(C)c2)cc1 (racemic)
IC50: 100 to 1000 nM
//
compound: Cc1cncc(NC(=O)C(=O)N2C[C@H](C)CC[C@H]2c2ccc3ccccc3c2)c1 (racemic)
IC50: > 1000 nM
//
compound: CCc1cc(NC(=O)C(=O)N2C[C@H](C)CC[C@H]2c2ccc3c(c2)CCC(=O)N3)cnc1N (single isomer, unassigned)
IC50: 100 to 1000 nM

Write down the reported IC50 of COc1ncc(NC(=O)C(=O)N2C[C@@H](C)CC[C@@H]2c2cccc3[nH]ncc23)cc1C(N)=O (single isomer, unassigned) , test system: HAP1 MTAP-intact cell line.
> 1000 nM

Write down the reported IC50 of Cc1cc(NC(=O)C(=O)N2C[C@H](C)CC[C@H]2c2ccc(C(F)(F)F)cc2)cnc1N (single isomer, unassigned) , test system: HAP1 MTAP-intact cell line.
< 100 nM

Write down the reported IC50 of C[C@@H]1CC[C@@H]([C@@H]2CCC(O)C2)N(C(=O)C(=O)Nc2cncc(C(N)=O)c2)C1 (mixture of isomers) , test system: HAP1 MTAP-intact cell line.
> 1000 nM
